Target: c-MET kinase (Homo sapiens (Human))
Sequence (P08581 25-1390): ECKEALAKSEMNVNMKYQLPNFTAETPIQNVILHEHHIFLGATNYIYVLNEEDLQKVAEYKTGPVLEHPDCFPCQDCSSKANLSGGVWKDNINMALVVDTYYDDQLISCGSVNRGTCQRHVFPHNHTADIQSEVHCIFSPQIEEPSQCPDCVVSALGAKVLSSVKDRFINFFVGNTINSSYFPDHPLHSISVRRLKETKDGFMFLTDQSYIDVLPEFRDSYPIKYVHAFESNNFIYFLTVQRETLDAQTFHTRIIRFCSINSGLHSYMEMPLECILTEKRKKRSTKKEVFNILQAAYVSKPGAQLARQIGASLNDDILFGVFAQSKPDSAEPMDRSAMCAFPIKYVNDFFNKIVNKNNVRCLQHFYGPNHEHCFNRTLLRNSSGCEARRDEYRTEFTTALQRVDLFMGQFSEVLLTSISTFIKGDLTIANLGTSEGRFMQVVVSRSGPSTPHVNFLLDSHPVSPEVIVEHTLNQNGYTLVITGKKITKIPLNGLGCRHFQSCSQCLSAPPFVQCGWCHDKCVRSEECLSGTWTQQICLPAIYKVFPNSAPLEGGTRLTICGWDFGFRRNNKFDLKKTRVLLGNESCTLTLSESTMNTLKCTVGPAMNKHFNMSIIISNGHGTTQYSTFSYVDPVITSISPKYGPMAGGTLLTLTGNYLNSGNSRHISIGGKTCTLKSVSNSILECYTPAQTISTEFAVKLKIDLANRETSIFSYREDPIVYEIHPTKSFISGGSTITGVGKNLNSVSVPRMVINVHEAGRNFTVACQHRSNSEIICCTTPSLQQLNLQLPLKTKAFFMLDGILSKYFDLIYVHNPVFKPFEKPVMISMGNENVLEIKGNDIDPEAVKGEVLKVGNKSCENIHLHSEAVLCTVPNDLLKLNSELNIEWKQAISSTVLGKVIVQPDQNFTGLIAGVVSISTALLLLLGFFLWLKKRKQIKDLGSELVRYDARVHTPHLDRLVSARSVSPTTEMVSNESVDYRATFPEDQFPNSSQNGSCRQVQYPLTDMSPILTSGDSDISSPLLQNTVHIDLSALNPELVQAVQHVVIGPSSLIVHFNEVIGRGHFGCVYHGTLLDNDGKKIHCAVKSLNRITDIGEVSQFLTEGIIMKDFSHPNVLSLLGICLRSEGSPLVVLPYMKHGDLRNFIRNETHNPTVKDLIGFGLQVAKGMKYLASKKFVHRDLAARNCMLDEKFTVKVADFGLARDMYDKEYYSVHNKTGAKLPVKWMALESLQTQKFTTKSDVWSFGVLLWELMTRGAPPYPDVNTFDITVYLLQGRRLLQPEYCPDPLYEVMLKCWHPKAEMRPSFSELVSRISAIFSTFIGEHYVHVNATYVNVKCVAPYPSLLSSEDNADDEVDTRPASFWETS
pIC50: −log10 of the molar value.

compound	system	pIC50
COc1cc2nccc(Oc3ccc(NC(=O)c4cn(CC5CC5)c(=O)n(-c5ccc(F)cc5)c4=O)cc3F)c2c2c1OCCO2 [Example 48]	c-MET kinase (Homo sapiens (Human))	≥ 7.30
Cn1cc(C(=O)Nc2ccc(Oc3ccnc4cc(OCCCC#N)c5c(c34)OCCO5)cc2Cl)c(=O)n(-c2ccc(F)cc2)c1=O [Example 133]	c-MET kinase (Homo sapiens (Human))	≥ 7.30
CCc1cc(Oc2ccnc3cc(OCCOC)c4c(c23)OCCO4)c(F)cc1NC(=O)c1cn(CC)c(=O)n(-c2ccc(F)cc2)c1=O [Example 182]	c-MET kinase (Homo sapiens (Human))	≥ 7.30
CCn1cc(C(=O)Nc2ccc(Oc3ccnc4cc(OC5CC5)c5c(c34)OCCO5)cc2)c(=O)n(-c2ccc(F)cc2)c1=O [Example 152]	c-MET kinase (Homo sapiens (Human))	≥ 7.30
COc1cc2nccc(Oc3ccc(NC(=O)c4cn(C(C)C)c(=O)n(Cc5ccc(F)cc5)c4=O)cc3F)c2c2c1OCCO2 [Example 111]	c-MET kinase (Homo sapiens (Human))	5.30 to 6.30

These entries and their values trace back to patent US12202835B2.
